Each record here notes measured Ki.
- TARGET: dopamine D2 receptor (Homo sapiens, UniProt P14416)
- Construct: host or cells: A9L cells (membranes)
- Sequence (P14416 whole entry): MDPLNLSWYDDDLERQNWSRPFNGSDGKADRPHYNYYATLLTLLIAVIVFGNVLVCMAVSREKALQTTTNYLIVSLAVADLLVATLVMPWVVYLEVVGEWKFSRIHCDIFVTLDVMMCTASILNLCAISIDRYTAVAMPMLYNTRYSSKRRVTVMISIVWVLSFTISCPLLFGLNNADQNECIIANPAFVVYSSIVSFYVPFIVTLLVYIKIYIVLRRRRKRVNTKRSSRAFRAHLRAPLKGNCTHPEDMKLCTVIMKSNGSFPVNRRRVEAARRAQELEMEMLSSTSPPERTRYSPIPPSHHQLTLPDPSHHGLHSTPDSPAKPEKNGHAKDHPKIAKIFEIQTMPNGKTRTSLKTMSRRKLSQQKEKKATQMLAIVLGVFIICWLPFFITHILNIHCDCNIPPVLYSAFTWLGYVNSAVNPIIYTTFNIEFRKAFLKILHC
- METHOD SUMMARY: Dopamine D2 binding assay ([3H]-spiperone, membranes of transfected A9L cells, run by Cerep)
- MEASUREMENT CONTEXT: recombinant human D2, [3H]-spiperone 0.3 nM
EXPERIMENTAL ENDPOINT: Ki

- SMILES RECORD: "Fc1ccc2[nH]c(CN3CCN(c4ccccn4)CC3)cc2c1"
  REPORTED RESULT: "> 1000 nM"
- SMILES RECORD: "Cc1cccc(C(=O)NCN2CCN(c3ccccc3C#N)CC2)c1"
  REPORTED RESULT: "> 1000 nM"

---

- TARGET: human D4 receptor (Homo sapiens)
- Sequence (P21917 1-419): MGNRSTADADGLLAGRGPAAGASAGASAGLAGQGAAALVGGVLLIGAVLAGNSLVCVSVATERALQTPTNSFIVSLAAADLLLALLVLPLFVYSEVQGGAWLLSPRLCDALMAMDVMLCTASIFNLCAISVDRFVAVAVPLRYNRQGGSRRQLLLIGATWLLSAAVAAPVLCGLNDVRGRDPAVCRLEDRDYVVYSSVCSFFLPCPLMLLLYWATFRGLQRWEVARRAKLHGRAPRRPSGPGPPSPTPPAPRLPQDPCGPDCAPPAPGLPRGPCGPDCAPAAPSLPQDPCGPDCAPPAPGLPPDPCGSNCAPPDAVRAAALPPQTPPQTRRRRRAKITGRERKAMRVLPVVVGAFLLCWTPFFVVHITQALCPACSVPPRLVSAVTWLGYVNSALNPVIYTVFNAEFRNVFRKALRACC
- METHOD SUMMARY: FLIPR calcium assay in HEK293 cells expressing human D4 receptor co-transfected with Gqo5 chimera
- Type: cell-based
- Design: expressed in transfected cells; host or cells: HEK293 cells, stably transfected, with Gqo5 chimera
- MEASUREMENT CONTEXT: D4-HEK293 cells, Gqo5
EXPERIMENTAL ENDPOINT: EC50 (nM)

- SMILES RECORD: "Fc1ccc2[nH]c(CN3CCN(c4ccccn4)CC3)cc2c1"
  UNIT SYMBOL: "nM"
  REPORTED RESULT: 32
